Readings of Percent Effect for the listed molecules
system: Wolbachia pipientis; experiment: Anti-Wolbachia Cell-Based Screen; format: functional; set-up: scale not given: in the data most compounds retested in dose-response had high values; details: 5 µM
In all, about 48,000 compounds went through this assay and about 13,000 (27%) showed an effect of 50% or more. The list shows a part of the results.
measure.name: Percent Effect (%)

INSERT INTO results (molecule, unit_of_measure, number) VALUES
  ('CC(=O)NC(Cc1c[nH]c2cc(F)ccc12)C(=O)Nc1nonc1C (configuration not stated)', '%', -8.72),
  ('OCc1cc2ccccc2nc1NCC1(O)CCC1', '%', 2.986),
  ('CC(=O)NC[C@H]1COCc2nc3cc(S(C)(=O)=O)ccc3n21', '%', -22.59),
  ('CCCn1ncc(CN2C[C@@H]3CCCN3C[C@@H]2Cc2ccccc2)c1C', '%', 119.2),
  ('COCc1noc(-c2nn(-c3ccccc3F)c3c2CCC3)n1', '%', -4.596),
  ('c1ccc(CNc2ncc(CN3CCCN4CCC[C@H]4C3)cn2)cc1', '%', -5.428),
  ('CSc1ncc(C(=O)NCc2cc3n(n2)CCCN(CC(C)C)C3)cn1', '%', 10.82),
  ('CCOCCCC(=O)Nc1c(-c2ccc(F)cc2)ncn1C', '%', -11.11),
  ('CC(C)CC(=O)N1C[C@@H]2CCN(c3cnccn3)C[C@@H]2C1.O=C(O)C(F)(F)F', '%', 83.3),
  ('CCCn1ncc(CN2C[C@@H]3CCCN3C[C@H]2Cc2ccccc2)c1C', '%', 112.1),
  ('CSc1nccc(N2CCCC(c3nccn3C(C)C)C2)n1 (configuration not stated)', '%', 6.418),
  ('O=C(O)C(F)(F)F.O=C(c1cnccn1)N1C[C@@H]2CCN(c3cccnc3)C[C@@H]2C1', '%', -9.697),
  ('Cc1cc(NC(=O)CNc2ccc(Br)cc2F)on1', '%', -13.69),
  ('CCCC(=O)N1C[C@@H]2CCN(c3cnccn3)C[C@@H]2C1.O=C(O)C(F)(F)F', '%', 107.8),
  ('COc1ccc(F)c(-c2nccn2CCN2CCCC2)c1', '%', -4.269),
  ('CCN(CCO)Cc1cn(-c2cccc(F)c2)nc1-c1ccc(C)o1', '%', 11.71),
  ('Cc1nnc(CSc2n[nH]c(-c3ccccn3)n2)o1', '%', 3.251),
  ('N#CCCCN1CCCC1Cc1ccccc1 (configuration not stated)', '%', -5.887),
  ('CCOCCCNc1ncc(-c2cccc(F)c2)c(-c2nccn2C)n1', '%', 61.85),
  ('CCOCC(=O)N1C[C@@H]2CCN(c3cnccn3)C[C@@H]2C1.O=C(O)C(F)(F)F', '%', 110.3),
  ('CCOCCNC(=O)Nc1cccc(-c2nccn2C)c1', '%', -19.42),
  ('O=C(O)C(F)(F)F.O=C(c1ccccc1)N1CCO[C@@H]2CN(c3cnccn3)C[C@@H]2C1', '%', -2.123);

* * *

system: Wolbachia pipientis; experiment: Anti-Wolbachia Cell-Based Screen; assay type: functional; design: scale not given: in the data most compounds retested in dose-response had high values; settings: 5 µM
Out of some 48,000 compounds screened, about 13,000 (27%) showed an effect of 50% or more. The list shows a part of the results.
// classify: if (Percent Effect < 20%) yes (1) else no (0)

INSERT INTO assay_data (molecule, category_label) VALUES
  ('Nc1nc(NCCO)cc(N2CCc3c([nH]c4ccccc34)C2)n1', 'no (0)'),
  ('c1coc(-c2nc(CN3CCOC(Cn4cccn4)C3)cs2)c1 (stereo unspecified)', 'yes (1)'),
  ('COc1ccc(F)c(-c2cc(NCCO)nc(N)n2)c1', 'yes (1)'),
  ('OCC1CCCN1c1cc(NCCc2c[nH]c3ccccc23)ncn1 (stereo unspecified)', 'yes (1)'),
  ('CCNc1cc(N2CCN(C(=O)c3ccc(OC)cc3)CC2)nc(C)n1', 'yes (1)'),
  ('Cc1ocnc1C(=O)N(C)[C@@H]1CCC[C@@H](N2CCCC2)[C@@H]1O', 'no (0)');

* * *

Readings of Percent Effect for the listed compounds
test system: Wolbachia pipientis; test: Anti-Wolbachia Cell-Based Screen; type: functional; parameters: scale not given: in the data most compounds retested in dose-response had high values; conditions: 5 µM
The whole screen tested about 48,000 compounds, of which about 13,000 (27%) showed an effect of 50% or more. This is one part of the list.
measure.name: Percent Effect

INSERT INTO measurements (compound, result) VALUES
  ('O=C(O)C(F)(F)F.O=C(c1ccccc1)N1CCO[C@@H]2CN(c3ncccn3)C[C@@H]2C1', '5.105%'),
  ('COCC1c2nnn(C)c2CCN1C(=O)Cc1ccc2c(c1)OCO2 (stereo unspecified)', '20.75%'),
  ('COCC1c2nnn(C)c2CCN1C(=O)CCc1cccc(OC)c1 (stereo unspecified)', '104.7%'),
  ('CCc1nc(NC2CCCN(C(=O)c3cccs3)C2)c2cnn(C)c2n1 (stereo unspecified)', '96.59%'),
  ('CCn1nnc2c1CCN(C(=O)c1ccc3c(c1)OCO3)C2COC (stereo unspecified)', '-29.17%'),
  ('O=C(O)C(F)(F)F.O=C(c1ccco1)N1C[C@@H]2[C@@H](C1)OCC(=O)N2Cc1cccnc1', '-32.49%'),
  ('Cc1nc(NC2CCN(C(=O)C3CC3)CC2)c2cnn(C)c2n1', '200.9%'),
  ('COCC1c2nnn(CC3CC3)c2CCN1C(=O)c1cccc(F)c1 (stereo unspecified)', '-7.214%'),
  ('O=C(O)C(F)(F)F.O=C(c1ccoc1)N1C[C@@H]2[C@@H](C1)OCC(=O)N2Cc1cccnc1', '-4.595%'),
  ('O=C1NCCCc2c1oc1ccc(O)c(CN3CCOCC3)c21', '142.2%'),
  ('O=C(O)C(F)(F)F.c1cncc(-c2ccc3c(c2)C2(CC3)CCN(c3nncs3)CC2)c1', '7.623%'),
  ('Cn1nnc2c1CCN(Cc1ccccn1)C2COCc1ccccc1.O=C(O)C(F)(F)F.O=C(O)C(F)(F)F (stereo unspecified)', '-46.38%'),
  ('Cn1nnc2c1CCN(C(=O)CC1CC1)C2COCCN1CCCC1 (stereo unspecified)', '-8.962%'),
  ('Cc1nc(N2CCN(C(=O)C3CC3)CC2)c2c(n1)c(C)nn2C', '1.518%'),
  ('c1ccc(-n2nnnc2CN2CCCC(Cn3cncn3)C2)cc1 (stereo unspecified)', '0.4093%'),
  ('CC(C)c1cc(NC2CCCN(C(=O)c3cccs3)C2)ncn1 (stereo unspecified)', '-8.38%'),
  ('Cc1ccc2c(c1)C1(CC2)CCN(c2nncs2)CC1', '-2.782%'),
  ('O=C(O)C(F)(F)F.O=C(c1ccoc1)N1C[C@@H]2OCCN(c3ncccn3)[C@@H]2C1', '85.6%'),
  ('NC(=O)C1CN(Cc2c(O)ccc3oc4c(c23)CCCC4)CCO1 (stereo unspecified)', '-16.77%'),
  ('CCc1ccc(CN2CCc3c(nnn3C)C2COC)cc1.O=C(O)C(F)(F)F (stereo unspecified)', '-3.58%'),
  ('CC(SCC(=O)NC(N)=O)c1ccccc1F (stereo unspecified)', '-3.716%');

* * *

tested on: Wolbachia pipientis; experiment: Anti-Wolbachia Cell-Based Screen; format: functional; set-up: scale not given: in the data most compounds retested in dose-response had high values; settings: 5 µM
Among all 48,000 compounds or so, about 13,000 (27%) showed an effect of 50% or more. The list shows a part of the results.
measure.name: Percent Effect (%)

INSERT INTO results (molecule, measure_name, number) VALUES
  ('O[C@@H]1C[C@@H](c2nc(Cc3ccccc3)no2)N(Cc2ccc(F)cc2)C1', 'Percent Effect', 5.892),
  ('CCOc1c(Cl)cc(/C=C/c2ncc(C(=O)O)s2)cc1OC', 'Percent Effect', 82.8),
  ('COc1cc(/C=C/c2ncc(C(=O)O)s2)cc(Cl)c1OC', 'Percent Effect', 96.03),
  ('OCCN1CCN(Cc2coc(-c3ccc(Cl)cc3)n2)CC1', 'Percent Effect', 12.92),
  ('CC(=O)N1CCCCCC1C1CCN(Cc2nnc(C(C)(C)C)o2)CC1.Cl (stereo not drawn)', 'Percent Effect', -4.894),
  ('Cc1cc2c(=O)n(CCSc3cnn[nH]3)cnc2s1', 'Percent Effect', 114.6),
  ('COc1cc(/C=C/c2ncc(C(=O)O)s2)cc(Cl)c1O', 'Percent Effect', 10.97),
  ('Oc1ccccc1CN1C[C@H](O)C[C@H]1c1nc(Cc2ccccc2)no1', 'Percent Effect', 2.62),
  ('N#CCCN(CC1CCOC1)Cn1ccc(-c2ccccc2)n1 (stereo not drawn)', 'Percent Effect', -2.845),
  ('CNC(=O)c1cnc(/C=C/c2cc(OC)c(OC)c(OC)c2)s1', 'Percent Effect', 2.96),
  ('CNC(=O)c1cnc(/C=C/c2ccc(O)c(OC)c2)s1', 'Percent Effect', 0.2416),
  ('CC(C)c1ccc(C(O)Cn2c(=O)c(C#N)cn(C3CC3)c2=O)cc1 (stereo not drawn)', 'Percent Effect', -1.509),
  ('O[C@@H]1C[C@H]2CN(Cc3ccsc3)[C@@H](Cc3ccccc3)CN2C1', 'Percent Effect', 108.5),
  ('O[C@@H]1C[C@@H](c2nc(-c3ccccc3)no2)N(CC2CCCCC2)C1', 'Percent Effect', -2.196),
  ('O[C@@H]1C[C@H]2CN(Cc3ccccc3Cl)[C@H](Cc3ccccc3)CN2C1', 'Percent Effect', 117.1),
  ('CCC1CCN(CCn2cnc3c(C)csc3c2=O)CC1', 'Percent Effect', -5.154),
  ('O[C@@H]1C[C@@H](c2nc(-c3ccccc3)no2)N(Cc2ccncc2)C1', 'Percent Effect', -6.257),
  ('O[C@@H]1C[C@H]2CN(Cc3ccccc3)[C@H](Cc3ccccc3)CN2C1', 'Percent Effect', 111.3),
  ('Cc1csc2c(=O)n(CCN3CCNCC3)cnc12', 'Percent Effect', -1.772),
  ('Cc1cc(C(=O)N(C)Cc2ccoc2)c(NC(=O)C(C)(C)C)s1', 'Percent Effect', -2.438),
  ('CCn1nc2c(cc1=O)CN(CC(=O)N(C)c1nccs1)CC2', 'Percent Effect', -28.1),
  ('Cc1cc2[nH]c(CN3CCOC(c4ccc(Cl)cc4)C3)cc(=O)n2n1 (stereo not drawn)', 'Percent Effect', -2.359),
  ('CCOc1cc(/C=C/c2ncc(C(=O)O)s2)cc(Cl)c1OC', 'Percent Effect', 3.266);

Data origin, for the record: ChEMBL document CHEMBL3988442
